species on record: Rattus norvegicus; test: DrugMatrix - Regimen: Daily Repeat; assay type: toxicity, organism-based, Sprague-Dawley; set-up: regimen Daily Repeat, gender Male, age 6-8 weeks; details: in vivo, po, 10 mg/kg, 72 h, tissue Blood, route oral GAVAGE, dose level Low, time 3 day, vehicle .5 % CMC
quantity_measured: PLATELET COUNT (x10E3/uL)
Respond numerically; units are x10E3/uL and should not be typed.

Guide cases for PLATELET COUNT, answers given:
>>> print(df.to_string())
                                   compound  observed_value
0  CNCCC(Oc1ccc(C(F)(F)F)cc1)c1ccccc1 (centres undefined)         1383.67
1  Fc1ccc(C(c2ccc(F)cc2)N2CCN(C/C=C/c3ccccc3)CC2)cc1            1291
2  O=C1CN=C(c2ccccc2Cl)c2cc([N+](=O)[O-])ccc2N1         1157.67

# context switch: different compound, same PLATELET COUNT
// query Field request: PLATELET COUNT | item: O=C1C(CC[S+]([O-])c2ccccc2)C(=O)N(c2ccccc2)N1c1ccccc1 (centres undefined)
// result 1352.33
